Below, each entry is listed with its recorded growth.
Test system: MDA-MB-231 breast
Experiment: NCI-60 one-dose screen, 48 h (100 = growth as untreated, 0 = no growth, -100 = all killed)
Details: 10 µM unless noted
Method: Cells are grown in 96 well plates and exposed to the test compound for 48 hours. Compounds are tested at a single concentration, which is 10^-5 M for most compounds. The reported endpoint is percent growth (GI% or GIPRCNT), where numbers from 0 - 100% represent growth inhibition, and numbers from -100% - 0 represent cell death. For example, a value of 40 represents 60% growth inhibition. A value of 0 means no net growth occurred over the course of the experiment. […]
Compounds without any hit were thinned out: in the full panel of roughly 83,000, 20% have a hit. Calls of active or inactive are those of the source. How the source made its calls: active means growth percent below 10; inactive means the rest.

- molecule: "N=C(N)N=Nc1ccc(NN=C(N)N)c2ccccc12"
  test_system: "MDA-MB-231 breast"
  growth: "101% (inactive)"
- molecule: "CC(C)(C)C(=O)OCOP(=O)(OCOC(=O)C(C)(C)C)C1CC(O)N(O)C1=O (configuration not stated)"
  test_system: "MDA-MB-231 breast"
  growth: "42.7% (inactive)"
- molecule: "Cc1ccc2c(O)c(O)cc(NC(C)CCCN)c2n1 (configuration not stated)"
  test_system: "MDA-MB-231 breast"
  growth: "57.2% (inactive)"
- molecule: "Cc1nnc(/N=C2\\NC(=O)/C(=C/C=C/c3ccccc3)S2)s1"
  test_system: "MDA-MB-231 breast"
  growth: "71.4% (inactive)"
- molecule: "COC1=C(OC)C(=O)c2ccccc2C1=O"
  test_system: "MDA-MB-231 breast"
  growth: "94% (inactive)"

Query block: Look up and report measured growth for this entry: CCCC(C)c1cc(Cc2cc(Cl)cc(Cl)c2O)c(O)c(Cc2cc(Cl)cc(Cl)c2O)c1 (configuration not stated)
Result block: -13.4% (active)

Query block: Return value of growth for input O=C(/C=C/c1ccc(Br)cc1)c1ccccc1 , no commentary.
Result block: 101% (inactive)

---

System: SK-MEL-2 melanoma
Test: NCI-60 one-dose screen, 48 h
Conditions: 10 µM unless noted
This is part of a sample that, as a whole, favours compounds with a hit. Of some 83,000 tested, about 20% had one in any assay. The source made the active and inactive calls. The calls were made as follows: active = growth percent below 10; inactive = the rest.
Hello, when you answer, please use one of the following outcomes: active, inactive

Example cases with answers are listed next.
- cpd_smiles: "CSCc1ncc(-c2ccc(C(F)(F)F)cc2)c(NC2CCCCCC2)n1"
  test_system: "SK-MEL-2 melanoma"
  assigned_category: "inactive"
- cpd_smiles: "O=C(/C=C1\\C(=O)N(Cc2ccc([N+](=O)[O-])cc2)c2ccccc21)c1ccc(OCCN2CCCCC2)cc1"
  test_system: "SK-MEL-2 melanoma"
  assigned_category: "active"

Query block: State the result this test recorded for N#CCCCCCCCCCCC#N .
Result block: inactive

Query block: Per the assay record, what outcome was assigned to CCOC(=O)c1c(C)oc2ncnc(Nc3ccc(C(=O)NCCc4ccccc4)cc3)c12 ?
Result block: inactive

Query block: What did this assay record as the result for Nc1ccc(S(=O)(=O)Nc2cc(F)cc(F)c2)cc1 ?
Result block: inactive

Query block: Write down the call the test reported for this compound. Item: OCCN1CCCN(CCCN2c3ccccc3Sc3ccc(C(F)(F)F)cc32)CC1
Result block: inactive

Query block: Outcome? O=c1oc2ccc3ccccc3c2cc1-c1ccnc2[nH]c(=S)[nH]c(=O)c12
Result block: inactive

Query block: Status in this test for COc1ccc(-c2nc(SCC(C)C)nc(Nc3ccc(C(=O)O)cc3)c2C#N)cc1 ?
Result block: inactive
